The measurements presented in this section are drawn from the supplement of paper PMC3334620.

Biological target: Yer184c (UniProt P39961)
Sequence: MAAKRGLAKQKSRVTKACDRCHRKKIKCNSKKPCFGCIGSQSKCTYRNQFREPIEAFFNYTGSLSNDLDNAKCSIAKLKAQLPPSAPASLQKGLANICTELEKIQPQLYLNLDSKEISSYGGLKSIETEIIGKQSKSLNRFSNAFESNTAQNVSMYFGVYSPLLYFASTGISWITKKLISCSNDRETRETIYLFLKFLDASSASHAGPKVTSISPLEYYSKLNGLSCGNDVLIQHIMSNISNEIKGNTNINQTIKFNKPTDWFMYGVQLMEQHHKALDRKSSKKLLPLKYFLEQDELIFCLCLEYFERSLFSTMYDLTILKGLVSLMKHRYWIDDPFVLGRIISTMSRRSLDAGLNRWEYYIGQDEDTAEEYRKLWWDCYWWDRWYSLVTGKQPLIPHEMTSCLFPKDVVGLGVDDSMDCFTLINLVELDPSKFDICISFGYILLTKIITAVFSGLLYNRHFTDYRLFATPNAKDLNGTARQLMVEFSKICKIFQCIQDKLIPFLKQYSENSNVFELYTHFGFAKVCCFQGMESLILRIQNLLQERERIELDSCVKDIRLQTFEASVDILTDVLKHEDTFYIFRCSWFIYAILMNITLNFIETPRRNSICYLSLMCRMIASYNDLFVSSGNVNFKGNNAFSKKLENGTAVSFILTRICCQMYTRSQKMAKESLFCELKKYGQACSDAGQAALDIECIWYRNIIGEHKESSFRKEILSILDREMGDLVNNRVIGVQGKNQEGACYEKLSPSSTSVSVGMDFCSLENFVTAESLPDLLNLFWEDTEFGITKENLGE
Test: PBM E-score (8-mer binding enrichment) (E-score (-0.5 to 0.5)); higher = stronger / more preferred TF binding
Conditions: protein concentration: 100 nM; construct: GST-full length
Over roughly 33,000 sequences, “E-score (-0.5 to 0.5)” has its median near -0.016; the highest 2% begin near 0.3. The sample as a whole holds a higher share of the highest values than the screen did.
measure: PBM E-score

AGCCCTCC : -0.201
CAATTCCA : -0.0791
AAGGCTGC : -0.0369
GCATCGGA : 0.307

// lookup PBM E-score for ATTTCCCC
-0.166

Given the entry GCCGAACA , report its measured PBM E-score.
0.329

Quick check: PBM E-score of CAATTCCC ?
0.178

Given the entry CATCCGCA , report its measured PBM E-score.
0.108

What does the record list as PBM E-score for CCGGTCCC ?
0.0884

Dear colleague, I am looking for the recorded PBM E-score of the following sequence: GATCCGCA
0.0531

Returns the measured PBM E-score for the input sequence. Input: ACTAACGA
0.00902

Give the measured PBM E-score of CCGCCTCA .
-0.051

PBM E-score lookup needed for CATCCGGG , thanks.
0.223

Can you share its PBM E-score? I mean this sequence: ACCTCACT
-0.0518

Item ATCCGAGC has what recorded PBM E-score?
0.219

Param item = ACCGAACA ; retrieve measured PBM E-score.
0.259

Form field: reported PBM E-score of AATCCGCT
-0.0489

Suppose we examine the sequence ATTTTCGG ; what PBM E-score value has been reported?
0.377

Form field: reported PBM E-score of AGAGCCAT
-0.101

----------
Biological target: Yer184c (UniProt P39961)
Sequence: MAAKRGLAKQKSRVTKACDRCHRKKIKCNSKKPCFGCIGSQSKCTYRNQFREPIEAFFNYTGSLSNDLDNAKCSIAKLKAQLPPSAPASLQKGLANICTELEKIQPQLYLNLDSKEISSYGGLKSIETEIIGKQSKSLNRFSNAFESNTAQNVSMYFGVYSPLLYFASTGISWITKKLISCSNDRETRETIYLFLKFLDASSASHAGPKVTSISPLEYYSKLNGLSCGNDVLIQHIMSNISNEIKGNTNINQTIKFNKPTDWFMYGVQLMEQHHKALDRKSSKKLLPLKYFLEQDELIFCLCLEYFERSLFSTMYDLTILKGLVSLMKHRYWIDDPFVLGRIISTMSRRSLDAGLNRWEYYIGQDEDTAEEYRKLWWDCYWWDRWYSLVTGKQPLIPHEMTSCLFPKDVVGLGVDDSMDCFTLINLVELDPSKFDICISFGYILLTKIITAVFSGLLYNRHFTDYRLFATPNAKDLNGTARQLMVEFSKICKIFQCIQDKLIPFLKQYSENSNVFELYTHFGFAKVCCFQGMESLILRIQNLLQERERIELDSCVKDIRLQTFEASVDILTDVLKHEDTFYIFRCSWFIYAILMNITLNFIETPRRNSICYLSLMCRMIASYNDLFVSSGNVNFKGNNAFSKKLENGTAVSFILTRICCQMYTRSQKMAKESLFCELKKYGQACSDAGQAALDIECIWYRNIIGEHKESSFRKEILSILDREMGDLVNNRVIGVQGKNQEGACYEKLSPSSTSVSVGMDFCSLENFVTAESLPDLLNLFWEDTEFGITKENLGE
Test: PBM E-score (8-mer binding enrichment) (E-score (-0.5 to 0.5)); higher = stronger / more preferred TF binding
Conditions: protein concentration: 100 nM; construct: GST-full length
Over roughly 33,000 sequences, “E-score (-0.5 to 0.5)” has its median near -0.016; the highest 2% begin near 0.3. Many of the other results were omitted from the sample, so the highest values are more common in it than they were.
measure: PBM E-score

Please review the following examples before continuing.
AACTCGGC : 0.273
CAAGTGCC : -0.126
CCCGCTCA : -0.141

Data request, read-out PBM E-score, for GTATGCTA
-0.0379

PBM E-score lookup needed for CAATCTGC , thanks.
-0.14

----------
Target: Yer184c (UniProt P39961)
Sequence: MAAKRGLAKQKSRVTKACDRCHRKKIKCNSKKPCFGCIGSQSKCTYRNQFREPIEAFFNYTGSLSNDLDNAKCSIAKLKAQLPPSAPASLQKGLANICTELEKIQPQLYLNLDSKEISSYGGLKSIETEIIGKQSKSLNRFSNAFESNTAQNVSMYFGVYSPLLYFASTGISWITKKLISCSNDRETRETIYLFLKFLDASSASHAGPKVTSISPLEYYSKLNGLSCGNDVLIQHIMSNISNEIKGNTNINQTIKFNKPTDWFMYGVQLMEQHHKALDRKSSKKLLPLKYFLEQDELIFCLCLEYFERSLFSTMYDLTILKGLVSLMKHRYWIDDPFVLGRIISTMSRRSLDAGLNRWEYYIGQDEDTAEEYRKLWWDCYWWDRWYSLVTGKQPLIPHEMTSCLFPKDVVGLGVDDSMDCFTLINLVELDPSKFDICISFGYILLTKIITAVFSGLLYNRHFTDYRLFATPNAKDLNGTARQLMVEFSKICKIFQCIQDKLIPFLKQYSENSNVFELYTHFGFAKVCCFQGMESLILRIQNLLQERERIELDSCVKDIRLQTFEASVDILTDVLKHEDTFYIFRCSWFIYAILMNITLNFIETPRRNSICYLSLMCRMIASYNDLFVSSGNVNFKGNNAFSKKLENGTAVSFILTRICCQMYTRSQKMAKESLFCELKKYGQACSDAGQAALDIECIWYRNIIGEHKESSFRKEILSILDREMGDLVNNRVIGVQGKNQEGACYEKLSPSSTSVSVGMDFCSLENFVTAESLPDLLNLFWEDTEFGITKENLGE
Assay: PBM E-score (8-mer binding enrichment) (E-score (-0.5 to 0.5)); higher = stronger / more preferred TF binding
Conditions: protein concentration: 100 nM; construct: GST-full length
In all, about 33,000 sequences were measured (“E-score (-0.5 to 0.5)”: median about -0.016, highest 2% from about 0.3 on). The full list was thinned out, with the highest values kept by preference.
measure: PBM E-score
// no unit string in output, number only

CGGGTTCC : 0.246

Tell me the measured PBM E-score of AAGTATTC , please.
0.0574

# input sequence: ACGGATTG ; wanted: its PBM E-score
0.161

Given the entry AGGCTCAA , report its measured PBM E-score.
-0.157

Fill in the blank: the reported PBM E-score of AGCCGGCT is ____.
0.36

Query (sequence): GCCGCGCA ; field requested: PBM E-score
0.0353

----------
Molecular target: Yer184c (UniProt P39961)
Sequence: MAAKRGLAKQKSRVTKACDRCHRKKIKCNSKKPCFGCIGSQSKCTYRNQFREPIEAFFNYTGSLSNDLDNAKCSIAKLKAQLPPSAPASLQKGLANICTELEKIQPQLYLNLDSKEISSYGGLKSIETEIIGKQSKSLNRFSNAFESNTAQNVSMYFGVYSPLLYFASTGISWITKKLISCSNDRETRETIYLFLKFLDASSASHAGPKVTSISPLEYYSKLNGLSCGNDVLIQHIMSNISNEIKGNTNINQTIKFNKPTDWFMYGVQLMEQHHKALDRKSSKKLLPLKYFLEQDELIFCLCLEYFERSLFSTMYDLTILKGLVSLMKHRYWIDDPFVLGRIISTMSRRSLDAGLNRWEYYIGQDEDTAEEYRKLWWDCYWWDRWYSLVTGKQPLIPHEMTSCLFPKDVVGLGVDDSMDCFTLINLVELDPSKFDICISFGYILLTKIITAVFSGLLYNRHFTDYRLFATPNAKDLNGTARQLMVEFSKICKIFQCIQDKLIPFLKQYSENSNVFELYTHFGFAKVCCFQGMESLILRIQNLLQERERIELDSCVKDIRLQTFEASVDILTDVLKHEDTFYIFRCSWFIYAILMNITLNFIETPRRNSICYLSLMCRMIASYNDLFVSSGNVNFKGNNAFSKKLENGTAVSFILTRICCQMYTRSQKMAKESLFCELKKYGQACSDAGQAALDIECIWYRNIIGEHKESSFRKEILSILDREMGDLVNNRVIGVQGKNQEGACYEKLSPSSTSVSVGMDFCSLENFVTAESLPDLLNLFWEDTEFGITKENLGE
Experiment: PBM E-score (8-mer binding enrichment) (E-score (-0.5 to 0.5)); higher = stronger / more preferred TF binding
Settings: protein concentration: 100 nM; construct: GST-full length
Over roughly 33,000 sequences, “E-score (-0.5 to 0.5)” has its median near -0.016; the highest 2% begin near 0.3. This is one part of a sample in which the highest values are shown more often than they occur.
Output MET for PBM E-score not less than 0.1; output NOT MET otherwise.

Examples with answers:
CGCGTAGC : NOT MET
AAATCCGT : MET
CTTCGGCA : MET
CAACTTTC : NOT MET
TGGGAAAA : NOT MET
AAGGAAAT : MET

Please tell me: is the sequence GTGCAGAA at or over 0.1 in terms of PBM E-score?
NOT MET

Tell me whether PBM E-score is at least 0.1 here: CAGCCTGA
NOT MET

Hi, just wondering whether ATTCGGCC shows PBM E-score of 0.1 or higher.
MET

Exam item: decide whether the reported PBM E-score for TACCGGAA is at least 0.1.
MET

Evaluate CCCGGACG : PBM E-score at minimum 0.1?
NOT MET

Entry TCCGGAAA : is its PBM E-score no less than 0.1?
MET

Quick check, PBM E-score >= 0.1? CTTACTGC
NOT MET

Is the recorded value of PBM E-score equal to or greater than 0.1 for this sequence? ACGGAAAA
MET

Does AGAGGTGA have a reported PBM E-score of at least 0.1?
NOT MET

Entry GAGTGCAC : is its PBM E-score no less than 0.1?
NOT MET

Is PBM E-score at least 0.1? Consider GGACCGAC
MET
